# Tested on: HIV-1 double mutant RES056 (Y181C/K103N)
# Experiment description: Anti-HIV-1 activity in MT-4 cells (MTT method), RES056
# Assay type: cell-based
# Condition context: Human immunodeficiency virus 1, MT4, read-out: EC50 (nM) Y181C/K103N
Would you mind telling me the reported EC50 of each entry?

input: Recorded EC50 of Cc1cc(C)c(Oc2nc(NC3CCN(Cc4ccc(S(N)(=O)=O)cc4)CC3)nc3c2SCCC3)c(C)c1 , please.
output: > 100 nM

input: Recorded EC50 of Cc1cc(C#N)cc(C)c1Oc1nc(NC2CCN(Cc3ccc(C(N)=O)cc3)CC2)nc2c1SCCC2 , please.
output: 10 to 100 nM

input: Recorded EC50 of Cc1cc(C#N)cc(C)c1Oc1nc(NC2CCN(Cc3ccc(S(N)(=O)=O)cc3)CC2)nc2c1SCCC2 , please.
output: 10 to 100 nM

input: Recorded EC50 of Cc1cc(C#N)cc(C)c1Oc1nc(NC2CCN(c3cccc(C#N)c3)CC2)nc2c1SCCC2 , please.
output: > 100 nM

input: Recorded EC50 of Cc1cc(C#N)cc(C)c1Oc1nc(NC2CCN(Cc3ccccc3C#N)CC2)nc2c1SCCC2 , please.
output: > 100 nM

input: Recorded EC50 of CCOC(=O)c1ccc(CN2CCC(Nc3nc4c(c(Oc5c(C)cc(C#N)cc5C)n3)SCCC4)CC2)cc1 , please.
output: > 100 nM

input: Recorded EC50 of Cc1cc(C#N)cc(C)c1Oc1nc(Nc2ccc(C#N)cc2)nc2c1SCCC2 , please.
output: 10 to 100 nM

input: Recorded EC50 of O=C1Nc2ccc(Cl)cc2[C@@](C#CC2CC2)(C(F)(F)F)O1 [EFV, Efavirenz, reference compound] , please.
output: > 100 nM

input: Recorded EC50 of Cc1cc(C#N)cc(C)c1Oc1nc(NC2CCN(Cc3cccc(C(N)=O)c3)CC2)nc2c1SCCC2 , please.
output: > 100 nM

input: Recorded EC50 of Cc1cc(C#N)cc(C)c1Oc1nc(NC2CCN(Cc3ccc(C#N)cc3)CC2)nc2c1SCCC2 , please.
output: > 100 nM

input: Recorded EC50 of Cc1cc(C#N)cc(C)c1Oc1nc(NC2CCN(Cc3ccc(N)cc3)CC2)nc2c1SCCC2 , please.
output: > 100 nM

input: Recorded EC50 of Cc1cc(C#N)cc(C)c1Oc1nc(NC2CCN(Cc3ccc(S(C)(=O)=O)cc3)CC2)nc2c1SCCC2 , please.
output: 10 to 100 nM

input: Recorded EC50 of Cc1cc(C#N)cc(C)c1Oc1nc(NC2CCN(Cc3ccc(NS(C)(=O)=O)cc3)CC2)nc2c1SCCC2 , please.
output: > 100 nM

input: Recorded EC50 of Cc1cc(C#N)cc(C)c1Oc1nc(NC2CCN(Cc3cccc(S(N)(=O)=O)c3)CC2)nc2c1SCCC2 , please.
output: > 100 nM

input: Recorded EC50 of Cc1cc(C#N)cc(C)c1Oc1nc(Nc2ccc(C#N)cc2)nc(N)c1Br [ETV, Etravirine, reference compound] , please.
output: 10 to 100 nM

input: Recorded EC50 of Cc1cc(/C=C/C#N)cc(C)c1Oc1nc(Nc2ccc(C#N)cc2)nc2c1SCCC2 , please.
output: 10 to 100 nM

input: Recorded EC50 of Cc1cc(C#N)cc(C)c1Oc1nc(Nc2ccc(C#N)cc2)nc2c1[S+]([O-])CCC2 (stereo not drawn) , please.
output: > 100 nM

input: Recorded EC50 of Cc1cc(/C=C/C#N)cc(C)c1Oc1nc(NC2CCN(Cc3ccc(S(N)(=O)=O)cc3)CC2)nc2c1SCCC2 , please.
output: 10 to 100 nM

input: Recorded EC50 of Cc1cc(C#N)cc(C)c1Oc1nc(Nc2ccc(C#N)cc2)nc2c1S(=O)(=O)CCC2 , please.
output: 10 to 100 nM

input: Recorded EC50 of Cc1cc(/C=C/C#N)cc(C)c1Nc1ccnc(Nc2ccc(C#N)cc2)n1 [RPV, Rilpivirine, reference compound] , please.
output: 10 to 100 nM

input: Recorded EC50 of Cc1cc(C#N)cc(C)c1Oc1nc(NC2CCN(Cc3ccc([N+](=O)[O-])cc3)CC2)nc2c1SCCC2 , please.
output: > 100 nM

input: Recorded EC50 of Cc1ccnc2c1NC(=O)c1cccnc1N2C1CC1 [NVP, Nevirapine, reference compound] , please.
output: > 100 nM

input: Recorded EC50 of Cc1cc(C#N)cc(C)c1Oc1nc(NC2CCN(c3cccc(C(N)=O)c3)CC2)nc2c1SCCC2 , please.
output: 10 to 100 nM

input: Recorded EC50 of Cc1cc(C#N)cc(C)c1Oc1nc(NC2CCN(Cc3cccc(C#N)c3)CC2)nc2c1SCCC2 , please.
output: > 100 nM

###

# System: HIV-1 E138K mutant strain
# Experiment description: Anti-HIV-1 activity in MT-4 cells (MTT method), E138K
# Assay type: cell-based
# Condition context: Human immunodeficiency virus 1, MT4, read-out: EC50 (nM) E138K
Would you mind telling me the reported EC50 of each entry?

input: Recorded EC50 of Cc1cc(C#N)cc(C)c1Oc1nc(NC2CCN(Cc3ccc(S(C)(=O)=O)cc3)CC2)nc2c1SCCC2 , please.
output: 10 to 100 nM

input: Recorded EC50 of Cc1cc(/C=C/C#N)cc(C)c1Oc1nc(NC2CCN(Cc3ccc(S(N)(=O)=O)cc3)CC2)nc2c1SCCC2 , please.
output: 10 to 100 nM

input: Recorded EC50 of Cc1cc(/C=C/C#N)cc(C)c1Nc1ccnc(Nc2ccc(C#N)cc2)n1 [RPV, Rilpivirine, reference compound] , please.
output: < 10 nM

input: Recorded EC50 of Cc1cc(C#N)cc(C)c1Oc1nc(Nc2ccc(C#N)cc2)nc2c1S(=O)(=O)CCC2 , please.
output: 10 to 100 nM

input: Recorded EC50 of Cc1cc(C#N)cc(C)c1Oc1nc(Nc2ccc(C#N)cc2)nc2c1SCCC2 , please.
output: 10 to 100 nM

input: Recorded EC50 of Cc1cc(C#N)cc(C)c1Oc1nc(Nc2ccc(C#N)cc2)nc(N)c1Br [ETV, Etravirine, reference compound] , please.
output: 10 to 100 nM

input: Recorded EC50 of Cc1cc(C#N)cc(C)c1Oc1nc(NC2CCN(Cc3ccc(NS(C)(=O)=O)cc3)CC2)nc2c1SCCC2 , please.
output: < 10 nM

input: Recorded EC50 of CCOC(=O)c1ccc(CN2CCC(Nc3nc4c(c(Oc5c(C)cc(C#N)cc5C)n3)SCCC4)CC2)cc1 , please.
output: > 100 nM

input: Recorded EC50 of Cc1cc(C#N)cc(C)c1Oc1nc(NC2CCN(Cc3ccc(N)cc3)CC2)nc2c1SCCC2 , please.
output: 10 to 100 nM

input: Recorded EC50 of Cc1cc(C#N)cc(C)c1Oc1nc(NC2CCN(c3cccc(C#N)c3)CC2)nc2c1SCCC2 , please.
output: > 100 nM

input: Recorded EC50 of Cc1cc(C#N)cc(C)c1Oc1nc(NC2CCN(Cc3ccc(S(N)(=O)=O)cc3)CC2)nc2c1SCCC2 , please.
output: < 10 nM

input: Recorded EC50 of Cc1cc(C#N)cc(C)c1Oc1nc(NC2CCN(Cc3ccc([N+](=O)[O-])cc3)CC2)nc2c1SCCC2 , please.
output: 10 to 100 nM

input: Recorded EC50 of Cc1cc(/C=C/C#N)cc(C)c1Oc1nc(Nc2ccc(C#N)cc2)nc2c1SCCC2 , please.
output: 10 to 100 nM

input: Recorded EC50 of Cc1cc(C#N)cc(C)c1Oc1nc(Nc2ccc(C#N)cc2)nc2c1[S+]([O-])CCC2 (stereo not shown) , please.
output: 10 to 100 nM

input: Recorded EC50 of O=C1Nc2ccc(Cl)cc2[C@@](C#CC2CC2)(C(F)(F)F)O1 [EFV, Efavirenz, reference compound] , please.
output: < 10 nM

input: Recorded EC50 of Cc1cc(C#N)cc(C)c1Oc1nc(NC2CCN(Cc3cccc(C#N)c3)CC2)nc2c1SCCC2 , please.
output: 10 to 100 nM
